This section presents binders with their documented IC50 values.
# tested-system: T1, cynomolgus IL-17A (cynomolgus, UniProt Q16552 24-155 (human entry), limits assumed)
# T1 construct: also called cyno IL-17A; cynoIL-17A
# T1 chain: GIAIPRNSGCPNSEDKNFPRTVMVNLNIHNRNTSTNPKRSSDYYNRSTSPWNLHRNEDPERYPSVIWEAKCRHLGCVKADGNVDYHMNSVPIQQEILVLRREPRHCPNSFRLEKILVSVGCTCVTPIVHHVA
# test-description: competition ELISA: mAb against biotinylated cyno IL-17A binding to coated IL-17RA-Fc
Report as a plain number; the unit nM is understood.

Sample records with IC50:
MORmAb8097 (antibody, V domains shown) VH: QVQLVESGGGLVQPGGSLRLSCAASGFTFSSYAMSWVRQAPGKGLEWVSTISMTSGFTYYADSVKGRFTISRDNSKNTLYLQMNSLRAEDTAVYYCARQLLLDVWGQGTLVTVSS VL: DIELTQPPSVSVAPGQTARISCSGDNLGDKYANWYQQKPGQAPVLVIYDDIDRPSGIPERFSGSNSGNTATLTISGTQAEDEADYYCGSYDFFLGMIVFGGGTKLTVL :: 0.3
MORmAb8098 (antibody, V domains shown) VH: QVQLVESGGGLVQPGGSLRLSCAASGFTFSSYAMSWVRQAPGKGLEWVSTISMTSGFTYYADSVKGRFTISRDNSKNTLYLQMNSLRAEDTAVYYCARQLTLDVWGQGTLVTVSS VL: DIELTQPPSVSVAPGQTARISCSGDNLGDKYANWYQQKPGQAPVLVIYDDIDRPSGIPERFSGSNSGNTATLTISGTQAEDEADYYCGSYDFFLGMIVFGGGTKLTVL :: 0.289

Switching to the query record.
Answer with the recorded IC50 for the binder listed here: MORmAb7708 (antibody, V domains shown) VH: QVQLVQSGAEVKKPGSSVKVSCKASGGTFSSYAISWVRQAPGQGLEWMGRIIPWFGWTSYAQKFQGRVTITADESTSTAYMELSSLRSEDTAVYYCARDSEYYFDHWGQGTLVTVSS VL: DIQMTQSPSSLSASVGDRVTITCRASQGISNWLNWYQQKPGKAPKLLIYAASSLQSGVPSRFSGSGSGTDFTLTISSLQPEDFAVYYCQQYSDDPTFGQGTKVEIK 0.289
